# ASSAYED TARGET: UniProt O43614
# Sequence (O43614 whole entry): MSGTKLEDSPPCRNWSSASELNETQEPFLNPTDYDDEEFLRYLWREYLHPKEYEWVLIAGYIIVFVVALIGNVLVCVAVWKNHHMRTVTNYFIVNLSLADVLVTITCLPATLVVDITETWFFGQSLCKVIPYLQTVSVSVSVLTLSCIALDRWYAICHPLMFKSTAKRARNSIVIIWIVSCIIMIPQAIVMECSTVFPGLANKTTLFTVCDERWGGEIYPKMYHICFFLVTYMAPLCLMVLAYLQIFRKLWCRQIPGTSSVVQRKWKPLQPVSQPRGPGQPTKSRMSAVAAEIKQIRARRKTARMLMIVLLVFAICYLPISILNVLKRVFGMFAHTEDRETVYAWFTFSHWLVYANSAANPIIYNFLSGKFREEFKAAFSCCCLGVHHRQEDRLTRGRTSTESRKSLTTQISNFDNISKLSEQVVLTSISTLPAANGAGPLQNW
# PROTOCOL TEXT: Scintillation Proximity Assay (SPA) binding assay, [3H]EMPA displacement, HEK-hOX2 membranes
# ASSAY CONDITIONS: Table 1, [3H]EMPA 2 nM
List of OX2 pKi (SPA binding) values.
Kindly provide the number alone.

Worked set:
> print(dat)
                                   compound  recorded.measurement
1  Cc1ccc(-c2nccs2)c(C(=O)N2C3CC(C3)[C@@H](C)C2COc2ccc(F)cc2)c1 (mixture of isomers) [Example 98]                  6.75
2  Cc1nc(C(=O)N2C(COc3ccc(Cl)cc3)CC3CC2C3)c(-c2ccccc2)s1 (stereo not shown) [Example 49]                  6.81
3  Cc1ccc(-c2nccs2)c(C(=O)N2C3CC(C3)[C@H](C)C2COc2ccc(F)cc2)c1 (mixture of isomers) [Example 101]                  6.15

Value lookup for OX2 pKi (SPA binding); key = Cc1ccc(-n2nccn2)c(C(=O)N2C3CC(C3)[C@H](C)C2COc2nc3ccc(F)cc3s2)n1 (stereo partly shown) [Example 110] 6.06

Given the compound Cc1nc(C(=O)N2C(COc3ccc(F)cc3)CC3CC2C3)c(-c2ccc(F)cc2)s1 (stereo not shown) [Example 50] , what is its reported OX2 pKi (SPA binding)? 6.52

Param item = Cc1nc(C(=O)N2C(COc3ccccc3F)CC3CC2C3)c(-c2ccccc2)s1 (stereo not shown) [Example 45] ; retrieve measured OX2 pKi (SPA binding). 7.12

What measured OX2 pKi (SPA binding) goes with Cc1ccc(-n2nccn2)c(C(=O)N2C3CC(C3)[C@H](C)C2COc2ccc(Cl)cc2)n1 (stereo partly shown) [Example 112] ? 5.92
